Target: human GluN1/GluN2B NMDA receptors (Homo sapiens, UniProt Q13224)
Sequence (Q13224 27-1484, other chains not shown): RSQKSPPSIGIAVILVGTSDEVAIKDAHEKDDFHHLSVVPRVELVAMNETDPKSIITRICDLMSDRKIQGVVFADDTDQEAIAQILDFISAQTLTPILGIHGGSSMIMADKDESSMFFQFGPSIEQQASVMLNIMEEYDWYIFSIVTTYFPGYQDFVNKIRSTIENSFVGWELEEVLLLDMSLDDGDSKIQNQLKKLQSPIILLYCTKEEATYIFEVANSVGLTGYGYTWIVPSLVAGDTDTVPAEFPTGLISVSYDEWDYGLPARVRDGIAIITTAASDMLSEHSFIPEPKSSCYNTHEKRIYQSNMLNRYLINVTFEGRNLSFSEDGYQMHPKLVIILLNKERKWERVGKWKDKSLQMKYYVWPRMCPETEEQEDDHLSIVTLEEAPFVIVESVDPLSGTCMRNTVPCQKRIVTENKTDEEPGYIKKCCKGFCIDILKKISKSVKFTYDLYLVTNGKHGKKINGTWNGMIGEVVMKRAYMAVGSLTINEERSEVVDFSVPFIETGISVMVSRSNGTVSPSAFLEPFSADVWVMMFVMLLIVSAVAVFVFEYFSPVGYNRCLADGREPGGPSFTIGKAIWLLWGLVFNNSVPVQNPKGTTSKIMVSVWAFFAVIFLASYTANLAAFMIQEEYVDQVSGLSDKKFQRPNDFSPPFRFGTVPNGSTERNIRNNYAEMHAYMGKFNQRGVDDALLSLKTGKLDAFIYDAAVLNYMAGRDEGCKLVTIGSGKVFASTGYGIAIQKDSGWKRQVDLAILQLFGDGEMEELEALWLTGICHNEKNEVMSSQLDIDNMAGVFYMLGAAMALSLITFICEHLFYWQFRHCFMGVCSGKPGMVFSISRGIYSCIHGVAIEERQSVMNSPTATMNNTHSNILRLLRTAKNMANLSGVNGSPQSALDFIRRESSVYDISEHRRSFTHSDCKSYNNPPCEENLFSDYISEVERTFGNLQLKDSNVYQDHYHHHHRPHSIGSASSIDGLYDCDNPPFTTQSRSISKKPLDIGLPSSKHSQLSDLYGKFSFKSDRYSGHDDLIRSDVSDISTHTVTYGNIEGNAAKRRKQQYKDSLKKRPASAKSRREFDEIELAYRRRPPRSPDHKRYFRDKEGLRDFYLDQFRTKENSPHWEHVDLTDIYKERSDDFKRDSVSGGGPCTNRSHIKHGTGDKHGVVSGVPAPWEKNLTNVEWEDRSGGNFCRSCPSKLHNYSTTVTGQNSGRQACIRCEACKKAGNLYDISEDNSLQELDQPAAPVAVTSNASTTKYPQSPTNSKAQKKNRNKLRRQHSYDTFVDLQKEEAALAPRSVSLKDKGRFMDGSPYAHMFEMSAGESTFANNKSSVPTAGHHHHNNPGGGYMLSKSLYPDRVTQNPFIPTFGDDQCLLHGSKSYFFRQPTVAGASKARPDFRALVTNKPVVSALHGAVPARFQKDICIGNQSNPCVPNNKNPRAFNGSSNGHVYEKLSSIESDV
Assay: Calcium flux (FLIPR) assay on cloned human NR1/GluN2B ion channels expressed in mammalian cells (standard and HTS variants)
Conditions: cells expressing human GluN1/GluN2B, glutamate and glycine co-agonists
pIC50: −log10 of the molar value.
Measurement Kind: pIC50

Field: example entries. Status: answers known.
>  <Compound>
Fc1ccc(-c2cnc3cnn(Cc4nnc(C5CC5)o4)c3c2)cc1C(F)F [Example 99]

>  <pIC50>
7.15

$$$$
>  <Compound>
COc1cncc(Cn2ncc3ncc(-c4ccc(Cl)c(Cl)c4)cc32)c1 [Example 215]

>  <pIC50>
6.66

$$$$
>  <Compound>
COc1cncc(Cn2ncc3ncc(-c4ccc(F)c(OC(F)F)c4)cc32)c1 [Example 230]

>  <pIC50>
7.32

$$$$
>  <Compound>
CNc1nnc(Cn2ncc3ncc(-c4ccc(F)c(C(F)F)c4)cc32)s1 [Example 126]

>  <pIC50>
5.79

$$$$
>  <Compound>
Fc1cncc(Cn2ncc3ncc(-c4ccc(F)c(Cl)c4)cc32)c1 [Example 195]

>  <pIC50>
7.60

$$$$

1: Fc1ccc(-c2cnc3cnn(Cc4ccncn4)c3c2)cc1OC(F)F [Example 271]
2: COc1ccc(Cn2ncc3ncc(-c4ccc(F)c(C(F)F)c4)cc32)cn1 [Example 204]
3: CC(F)(F)c1cccc(-c2cnc3cnn(Cc4cn[nH]c4)c3c2)c1 [Example 35]
4: Cc1nnc(Cn2ncc3ncc(-c4ccc(F)c(C(F)F)c4)cc32)n1C [Example 75]
Descending sort on pIC50 required. Ranked list of labels, please, in the requested order.
4, 1, 3, 2
(4: 6.86, 1: 6.40, 3: 6.19, 2: 5.79)

1: Cc1nnc(Cn2ncc3ncc(-c4ccc(F)c(C)c4F)cc32)s1 [Example 136]
2: Cc1cncc(Cn2ncc3ncc(-c4ccc(Cl)c(OC(F)F)c4)cc32)c1 [Example 239]
Lower pIC50: 1 or 2 ? Could you answer with the label of the item you picked?
2

P: FC(F)c1cccc(-c2cnc3cnn(Cc4ccccn4)c3c2)c1 [Example 156]
Q: Cc1nnc(Cn2ncc3ncc(-c4ccc(F)c(C(F)F)c4)cc32)[nH]1 [Example 13]
R: Fc1ccc(-c2cnc3cnn(Cc4nncs4)c3c2)cc1C(F)F [Example 121]
In this exercise, place the 3 compounds in ascending sequence of their recorded pIC50. Ranked list of labels, please, in the requested order.
Q, P, R

###

Target: human GluN1/GluN2B NMDA receptors (Homo sapiens, UniProt Q13224)
Assay: Calcium flux (FLIPR) assay on cloned human NR1/GluN2B ion channels expressed in mammalian cells (standard and HTS variants)
Conditions: cells expressing human GluN1/GluN2B, glutamate and glycine co-agonists
pIC50: −log10 of the molar value.
Measurement Kind: pIC50

Field: example entries. Status: answers known.
>  <Molecule>
Fc1ccc(-c2cnc3cnn(Cc4ccncn4)c3c2)cc1C(F)F [Example 270]

>  <pIC50>
6.75

$$$$
>  <Molecule>
Fc1cncc(Cn2ncc3ncc(-c4ccc(Cl)c(OC(F)F)c4)cc32)c1 [Example 240]

>  <pIC50>
6.78

$$$$
>  <Molecule>
Cc1nnc(Cn2ncc3ncc(-c4ccc(F)c(Cl)c4)cc32)o1 [Example 92]

>  <pIC50>
7.05

$$$$
>  <Molecule>
Cc1nnc(Cn2ncc3ncc(-c4ccc(F)c(C)c4)cc32)s1 [Example 132]

>  <pIC50>
7.48

$$$$

I: Fc1ccc(Cn2ncc3ncc(-c4ccc(F)c(F)c4)cc32)cn1 [Example 191]
II: Fc1ccc(-c2cnc3cnn(Cc4nnc(C(F)(F)F)o4)c3c2)cc1C(F)F [Example 102]
Could you please tell me which of these two has the higher pIC50: I or II ? Could you answer with the label of the item you picked?
II
(II: 7.31, I: 6.75)

1: N#Cc1cncc(Cn2ncc3ncc(-c4cccc(C(F)(F)F)c4)cc32)c1 [Example 3]
2: Cc1nnc(Cn2ncc3ncc(-c4cccc(C(F)(F)F)c4)cc32)o1 [Example 85]
3: Cc1cccc(-c2cnc3cnn(Cc4ccc(F)nc4)c3c2)c1 [Example 145]
4: COc1ccc(Cn2ncc3ncc(-c4ccc(F)c(OC(F)F)c4)cc32)cn1 [Example 227]
5: Cc1cc(Cn2ncc3ncc(-c4ccc(F)c(OC(F)F)c4)cc32)ncn1 [Example 281]
Descending sort on pIC50 required. Ranked list of labels, please, in the requested order.
3, 2, 1, 5, 4

a: N#Cc1cncc(Cn2ncc3ncc(-c4ccc(C(F)F)s4)cc32)c1 [Example 142]
b: Cc1nnc(Cn2nc(F)c3ncc(-c4ccc(F)c(C(C)(F)F)c4)cc32)o1 [Example 105]
c: FC(F)Oc1cc(-c2cnc3cnn(Cc4cccnn4)c3c2)ccc1Cl [Example 265]
In this exercise, place the 3 molecules in ascending sequence of their recorded pIC50. Ranked list of labels, please, in the requested order.
b, a, c

P: Cc1cncc(Cn2ncc3ncc(-c4ccc(F)c(C(C)(F)F)c4)cc32)c1 [Example 217]
Q: CC(F)(F)c1cc(-c2cnc3cnn(Cc4cccnc4)c3c2)ccc1F [Example 216]
Could you please tell me which of these two has the higher pIC50: P or Q ? Could you answer with the label of the item you picked?
Q

###

Target: human GluN1/GluN2B NMDA receptors (Homo sapiens, UniProt Q13224)
Experiment: Calcium flux (FLIPR) assay on cloned human NR1/GluN2B ion channels expressed in mammalian cells (standard and HTS variants)
Conditions: cells expressing human GluN1/GluN2B, glutamate and glycine co-agonists
Protocol: Effects of Test Articles on Cloned Human NR1/GuN2B Ion Channels Expressed in Mammalian Cells NMDA receptors are ion channels that are highly permeable to Ca^2+ ions, rendering it possible to monitor NMDA receptor function using cell-based calcium flux assay. […] The time course of the changes in intracellular calcium is measured using a fluorescent dye and a FLIPR (Fluorometric Imaging Plate Reader) device. […]
pIC50: −log10 of the molar value. Structures can show the parent of a compound that is named as a salt.
Measurement Kind: pIC50

Field: example entries. Status: answers known.
>  <Molecule>
Fc1ccc(-c2cnc3cnn(Cc4ccccn4)c3c2)cc1OC(F)F

>  <pIC50>
6.30

$$$$
>  <Molecule>
Cc1cc(Cn2ncc3ncc(-c4ccc(F)c(C(F)F)c4)cc32)ncn1

>  <pIC50>
6.65

$$$$
>  <Molecule>
Clc1ccsc1-c1cnc2cnn(Cc3cccnc3)c2c1

>  <pIC50>
7.21

$$$$
>  <Molecule>
COc1cc(Cn2ncc3ncc(-c4ccc(F)c(C(F)F)c4)cc32)ncn1

>  <pIC50>
6.74

$$$$
>  <Molecule>
COc1cncc(Cn2ncc3ncc(-c4ccc(F)c(C(F)F)c4)cc32)c1

>  <pIC50>
7.55

$$$$

I: Cc1ccc(-c2cnc3cnn(Cc4cccnc4)c3c2)s1
II: Cc1nccc(Cn2ncc3ncc(-c4ccc(F)c(C(F)F)c4)cc32)n1
Lower pIC50: I or II ? Could you answer with the label of the item you picked?
II

I: Fc1ccc(-c2cnc3cnn(Cc4cccnc4)c3c2)cc1C(F)F
II: FC(F)(F)c1cccc(-c2cnc3cnn(Cc4cnccn4)c3c2)c1 [Example 5, dihydrochloride salt]
Could you please tell me which of these two has the higher pIC50: I or II ? Could you answer with the label of the item you picked?
I
(I: 8.10, II: 6.63)

###

Molecular target: human GluN1/GluN2B NMDA receptors (Homo sapiens, UniProt Q13224)
Construct: expressed in transfected cells
Test: Calcium flux (FLIPR) assay on cloned human NR1/GluN2B ion channels expressed in mammalian cells (standard and HTS variants)
Assay type: cell-based
Conditions: cells expressing human GluN1/GluN2B, glutamate and glycine co-agonists
Measurement Kind: IC50 (nM)

Field: example entries. Status: answers known.
>  <Molecule>
Fc1cc(F)cc(Cn2ncc3ncc(-c4ccc(F)c(C(F)F)c4)cc32)c1

>  <IC50 [nM]>
394

$$$$
>  <Molecule>
Cc1nc(Cn2ncc3ncc(-c4ccc(F)c(OC(F)F)c4)cc32)no1

>  <IC50 [nM]>
279

$$$$

1: Cc1noc(Cn2ncc3ncc(-c4ccc(F)c(OC(F)F)c4)cc32)n1
2: CC(F)(F)c1cc(-c2cnc3cnn(Cc4cncc(C#N)c4)c3c2)ccc1Cl
3: CC(F)(F)c1cc(-c2cnc3cnn(Cc4cccnn4)c3c2)ccc1F
In this exercise, place the 3 molecules in ascending sequence of their recorded IC50. Ranked list of labels, please, in the requested order.
3, 1, 2

###

Assay: Liver microsomal stability (extraction ratio)
Assay type: in vitro ADME, mouse, rat, and human
Details: test compound 1 μM, 0.5 mg/mL liver microsomes, NADPH 1 mM, 37° C.; ER = predicted hepatic clearance / species blood flow; species not given
Measurement Kind: Extraction Ratio @ 1 μM

>  <Compound>
Cc1cc(Cn2ncc3ncc(-c4ccc(F)c(C(F)F)c4)cc32)on1 [Example 52]

>  <Extraction Ratio @ 1 μM>
0.69

$$$$
>  <Compound>
Fc1ccc(-c2cnc3cnn(Cc4cccnc4)c3c2)cc1C(F)F [Example 198]

>  <Extraction Ratio @ 1 μM>
0.65

$$$$
>  <Compound>
Cc1cnc(Cn2ncc3ncc(-c4ccc(F)c(C(F)F)c4)cc32)o1 [Example 8]

>  <Extraction Ratio @ 1 μM>
0.68

$$$$
